Target: TNF-R2 (Homo sapiens)
Sequence (P20333 23-257 limits assumed): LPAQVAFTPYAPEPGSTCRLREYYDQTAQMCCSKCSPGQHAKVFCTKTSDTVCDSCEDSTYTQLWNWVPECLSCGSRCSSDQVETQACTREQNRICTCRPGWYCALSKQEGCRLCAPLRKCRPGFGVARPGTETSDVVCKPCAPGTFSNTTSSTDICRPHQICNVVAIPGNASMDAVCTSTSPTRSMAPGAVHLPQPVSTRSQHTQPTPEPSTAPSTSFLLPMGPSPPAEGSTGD
assayMetric: IC50 (nM)

[
  {
    "compound": "COc1cc(O)c2c(c1)O[C@H](c1ccc(O)cc1)[C@@H](O)C2=O [Compound C4, 7-O-methyl aromadendrin]",
    "unitSymbol": "nM",
    "IC50": 27.6
  }
]

I. O=C(O)/C=C/c1ccccc1 [Compound C2, (E)-cinnamic acid]
II. O=C(C=Cc1ccccc1)OCC1OC(OC(=O)C=Cc2ccccc2)C(O)C(O)C1O [Compound C5, 1,6-dicinnamoyl-O-α-D-glucopyranoside]
III. COc1cc(O)c2c(c1)O[C@H](c1ccc(O)cc1)CC2=O [Compound C1, (2S)-5,4'-dihydroxy-7-methoxyflavanone]
**Q:** Hi! Can you put these in order of IC50, lowest number first? // format: requested-order list of labels
**A:** II, III, I
